target: T1, human EGFRvIII-hFc protein (human, UniProt P00533 25-645); assay: ELISA, EGFRvIII-hFc coated
T1 construct: extracellular domain; also called immunogen A; hFc-tagged EGFRvIII protein; not shown: human IgG Fc fragment (hFc) of the pCpC vector
measurement_name: EC50 (nM)
State the answer as a number, implicitly in nM.

Solved cases (3 shown):
binder: Chimeric antibody 75G7 (antibody, human IgG1, V domains shown, also called c75G7C6; chimeric antibody c75G7C6) VH: EVQLQQSGPELVKPGASVKIPCKASGYTFTDYNMDWVKQSHGKSLEWIGDINPNNGDTIYNQKFKGKATLTVDKSSSTAYMELRSLTSEDTAVYYCARGDYDGYYPVYYAMDYWGQGTSVTVSS VL: ENVLTQSPAIMSASPGEKVTMTCRASSSVSSSYLHWYQQKSGASPKLWIFSTSNLAAGVPARFSGSGSGTSYSLTVSSVEAEDAATYYCQQYSGYPLTFGAGTKLELK
EC50, nM: 0.02
--
binder: c75G7C6-1 (antibody, human IgG1, V domains shown, Chimeric 75G7C6 with NG of heavy chain CDR2 mutated to NA; also called c754G7C6-1; mutant chimeric antibody NG/NA) VH: EVQLQQSGPELVKPGASVKIPCKASGYTFTDYNMDWVKQSHGKSLEWIGDINPNNADTIYNQKFKGKATLTVDKSSSTAYMELRSLTSEDTAVYYCARGDYDGYYPVYYAMDYWGQGTSVTVSS VL: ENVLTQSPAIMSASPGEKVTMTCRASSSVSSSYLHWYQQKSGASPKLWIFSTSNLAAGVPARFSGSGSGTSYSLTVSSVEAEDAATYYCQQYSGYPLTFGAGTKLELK
EC50, nM: 0.02
--
binder: c75G7C6-2 (antibody, human IgG1, V domains shown, Chimeric 75G7C6 with NG of heavy chain CDR2 mutated to QG; also called c754G7C6-2; mutant chimeric antibody NG/QG) VH: EVQLQQSGPELVKPGASVKIPCKASGYTFTDYNMDWVKQSHGKSLEWIGDINPNQGDTIYNQKFKGKATLTVDKSSSTAYMELRSLTSEDTAVYYCARGDYDGYYPVYYAMDYWGQGTSVTVSS VL: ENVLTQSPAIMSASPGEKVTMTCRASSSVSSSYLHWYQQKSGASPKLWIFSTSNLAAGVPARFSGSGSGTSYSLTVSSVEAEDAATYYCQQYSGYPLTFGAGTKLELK
EC50, nM: 0.03

Read the next record carefully.
Exercise: Given the entry c75G7C6-3 (antibody, human IgG1, V domains shown, Chimeric 75G7C6 with DG of heavy chain CDR3 mutated to EG; Human IgG1/kappa; also called mutant chimeric antibody DG/EG) VH: EVQLQQSGPELVKPGASVKIPCKASGYTFTDYNMDWVKQSHGKSLEWIGDINPNNGDTIYNQKFKGKATLTVDKSSSTAYMELRSLTSEDTAVYYCARGDYEGYYPVYYAMDYWGQGTSVTVSS VL: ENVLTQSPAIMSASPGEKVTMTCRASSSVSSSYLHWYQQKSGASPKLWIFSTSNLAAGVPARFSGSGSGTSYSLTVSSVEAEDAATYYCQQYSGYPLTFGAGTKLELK , report its measured EC50.
Solution: 0.54
